Assay Overview: Measurement of optical anisotropy (value Δn) of cured polymer film
Assay type: physicochemical
Setup Conditions: cured polymer film 1.5 μm; retardation at 545.3 nm; Δn=Re/d

Smiles Notation	Δn
C=CC(=O)OCCCCCCOc1ccc(C(=O)Oc2ccc(C=NN=Cc3ccc(OC(=O)c4ccc(OCCCCCCOC(=O)C=C)cc4)c(C(=O)OCCOC(=O)C=C)c3)cc2)cc1	0.187
C=CC(=O)OCCCCOc1ccc(C(=O)Oc2ccc(C=NN=Cc3ccc(OC(=O)c4ccc(OCCCCOC(=O)C=C)cc4)c(OCC)c3)cc2)cc1	0.202
C=CC(=O)OCCCCOC(=O)Oc1ccc(C(=O)Oc2ccc(OC(=O)c3ccc(OC(=O)OCCCCOC(=O)C=C)cc3)c(C)c2)cc1	0.100
C=CC(=O)OCCCCCCOc1ccc(C(=O)Oc2ccc(C=NN=Cc3cc(OC)c(OC(=O)c4ccc(OCCCCCCOC(=O)C=C)cc4)c(OC)c3)cc2)cc1	0.116
C=CC(=O)OCCCCCCOc1ccc(C(=O)Oc2ccc(C=NN=Cc3ccc(OC(=O)c4ccc(OCCCCCCOC(=O)C=C)cc4)c(C(=O)OC)c3)cc2C(=O)OC)cc1	0.191
C=CC(=O)OCCCCCCOc1ccc(C(=O)Oc2ccc(C=NN=Cc3ccc(OC(=O)c4ccc(OCCCCCCOC(=O)C=C)cc4)c(OCC)c3)cc2OCC)cc1	0.200
C=CC(=O)OCCCCCCOc1ccc(C(=O)Oc2ccc(C=NN=Cc3ccc(OC(=O)c4ccc(OCCCCCCOC(=O)C=C)cc4)c(OCC)c3)cc2)cc1	0.199
C=CC(=O)OCCCCCCOc1ccc(C(=O)Oc2ccc(C=NN=Cc3ccc(OC(=O)c4ccc(OCCCCCCOC(=O)C=C)cc4)c(C(=O)OCCOCCC)c3)cc2)cc1	0.176

====

Assay Overview: Formation of cholesteric phase in cured liquid crystalline polymer film
Type: physicochemical
Design: key: A case where a cholesteric phase was formed is indicated by “Formed”; a case where a cholesteric phase was not formed is indicated by “Not formed”
Setup Conditions: composition with polymerizable chiral compound; cured film 4 μm; transmission spectrum

Smiles Notation	Cholesteric phase
C=CC(=O)OCCCCCCOc1ccc(C(=O)Oc2ccc(C=NN=Cc3ccc(OC(=O)c4ccc(OCCCCCCOC(=O)C=C)cc4)c(C(=O)OCCOCCC)c3)cc2)cc1	Formed
C=CC(=O)OCCCCCCOc1ccc(C(=O)Oc2ccc(C=NN=Cc3ccc(OC(=O)c4ccc(OCCCCCCOC(=O)C=C)cc4)c(OCC)c3)cc2)cc1	Formed
C=CC(=O)OCCCCCCOc1ccc(C(=O)Oc2ccc(C=NN=Cc3ccc(OC(=O)c4ccc(OCCCCCCOC(=O)C=C)cc4)c(C(=O)OC)c3)cc2C(=O)OC)cc1	Formed
